- assayed system: T1, renin (human (produced in the Human Secretome …, UniProt P00797 24-406, limits assumed))
- T1 construct: also called bREN
- T1 sequence (looked up): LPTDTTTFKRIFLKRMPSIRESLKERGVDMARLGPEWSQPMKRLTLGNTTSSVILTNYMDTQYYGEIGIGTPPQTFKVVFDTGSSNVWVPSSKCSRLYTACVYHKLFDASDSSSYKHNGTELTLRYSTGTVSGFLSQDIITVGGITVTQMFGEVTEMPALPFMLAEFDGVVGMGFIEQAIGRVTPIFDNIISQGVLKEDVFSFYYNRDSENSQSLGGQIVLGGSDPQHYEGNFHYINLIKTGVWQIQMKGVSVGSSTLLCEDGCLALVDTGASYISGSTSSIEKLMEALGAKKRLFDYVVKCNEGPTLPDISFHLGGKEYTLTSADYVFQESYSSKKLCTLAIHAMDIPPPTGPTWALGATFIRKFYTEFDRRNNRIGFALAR
- protocol description: SPR Biacore T200, target on CM5 chip, ADAPT injected, 1:1 fit
endpoint name: Kd (nM)
// return numeric value only (unit: nM, not printed)

binder: LMWAKAEAAIELVDYGVSDFYQYLISKAKTVEGVEALKLHILAALP (designed binder) [ADAPT variant REN_40]
scale unit: nM
value reported: 410

Shifting focus to the binder that follows.
If you can, please state the reported Kd value of LYHAKWMASLELAKYGVSDFYWNLISKAKTVEGVEALKLHILAALP (designed binder) [ADAPT variant REN_01] .
76
